The entries below come with measured cell number change values attached.
# assay name: qHTS Assay for Lipid Storage Modulators in Drosophila S3 Cells;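 further: cells counted by Cell Tracker Red CMTPX staining in the red channel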
# recorded conditions: BODIPY lipid droplet fluorescence, 18-24 h, cells fed with added oleic acid; measured here: cell count max response
# From the text: NIH Molecular Libraries Probe Production Centers Network [MLPCN] NIH Chemical Genomics Center [NCGC] […] Triacsin C (Sigma-Aldrich T-4540), an inhibitor of long-chain fatty acyl CoA synthetase that blocks synthesis of triglycerides, was used as a positive control for lipid under-storage. […] Fluorescence was detected by excitation of the fluorophores with a 488-nm laser on an Acumen Explorer (TTP Lab Tech). […] Cells were detected using channel 3 (575-640 nm) with 5-um width and 100-um depth filters. […]
Hit rate of the full screen: of about 320,000 compounds, about 2,100 (0.66%) were called active. Roughly 53% stayed inconclusive and do not appear here. What follows is part of a selection rich in actives, with near analogues and random picks from the rest.

compound	cell number change
Cc1nc2ccccc2n1Cc1ccccc1	-17%
Cc1ccccc1Cn1c(C)nc2ccccc21	-15.1%
O=C(c1c[nH]c(C(=O)C(Cl)(Cl)Cl)c1)c1ccccc1Br	7.04%
Oc1cccc(CCC2CCCCN2Cc2cn[nH]c2-c2ccc3c(c2)OCO3)c1 (stereo unspecified)	7.37%
CCOC(=O)N1CCN(S(=O)(=O)c2ccc3c(c2)SC(C)C(=O)N3)CC1 (stereo unspecified)	-22.8%
COC(=O)C(C)n1nc(C)n(-c2ccc(C)cc2)c1=O (stereo unspecified)	-11.2%
